System: K562 (chronic myelogenous leukaemia)
PROTOCOL_TEXT: Effect on tumor cell lines, viable cell count by trypan blue exclusion (Latham et al.): K562
Assay type: cell-based
TEST_CONTEXT: K562 chronic myelogenous leukaemia cells, viable cell count 96 hours after treatment

| LINE_NOTATION | IC50 |
| --- | --- |
| COc1ccc(CS(=O)(=O)/C(C#N)=C/c2ccc(-c3ccccc3)cc2)cc1 | > 100 µM |
| CSc1ccc(/C=C(\C#N)S(=O)(=O)Cc2ccc(Cl)cc2)cc1 | 50 to 100 µM |
| COc1ccc(NS(=O)(=O)/C(C#N)=C/c2ccc(-c3ccccc3)cc2)cc1 | 50 to 100 µM |

----------
Documented melting point across a set of molecules
VALUE_KIND: melting point

| MOLECULE | VALUE_OBSERVED |
| --- | --- |
| COc1ccc(CS(=O)(=O)/C(C#N)=C/c2ccc(Cl)c(Cl)c2Cl)cc1 [Example 146] | 136 to 138 °C |
| COc1ccc(NS(=O)(=O)/C(C#N)=C/c2ccc(C)s2)cc1 [Example 283] | 118 to 121 °C |
| NC(=O)/C(=C\c1ccc(Cl)cc1)S(=O)(=O)Cc1ccc(Cl)cc1Cl [Example 150] | 201 to 205 °C |
| N#C/C(=C\c1ccccc1Oc1ccccc1)S(=O)(=O)Nc1ccccc1Oc1ccccc1 [Example 210] | 138 to 140 °C |
| COc1cc(OC)c(/C=C(\C#N)S(=O)(=O)Cc2ccc(F)cc2)c(OC)c1 [Example 79] | 182 to 192 °C |
| N#C/C(=C\c1c[nH]c2ccc(Br)cc12)S(=O)(=O)Nc1ccc(Br)cc1 [Example 222] | 242 to 253 °C |
| COc1ccc(CS(=O)(=O)/C(C#N)=C/c2c(F)c(F)c(F)c(F)c2F)cc1OS(=O)(=O)c1ccc(C)cc1 [Example 38] | 170 to 172 °C |
| NC(=O)/C(=C\c1ccc(Br)cc1)S(=O)(=O)Cc1ccc(Cl)cc1Cl [Example 153] | 195 to 196 °C |
| CCOc1ccc(/C=C(\C#N)S(=O)(=O)Nc2ccc(Br)cc2)cc1OC [Example 219] | 188 to 190 °C |
| NC(=O)/C(=C\c1ccc(F)cc1)S(=O)(=O)c1ccccc1 [Example 177] | 151 to 154 °C |
| COc1cc(OC)c(OC)cc1/C=C(\C#N)S(=O)(=O)Nc1ccc(C)cc1C [Example 258] | 161 to 163 °C |
| COc1ccc(S(=O)(=O)/C(=C/c2c(OC)cc(OC)cc2OC)C(N)=O)cc1 [Example 182] | 172 to 175 °C |
| Cc1ccc(/C=C(\C(N)=O)S(=O)(=O)Cc2ccc(Cl)cc2Cl)cc1C [Example 151] | 193 to 196 °C |
| COc1ccc(NS(=O)(=O)/C(C#N)=C/c2ccc(N(C)C)cc2)cc1 [Example 280] | 166 to 169 °C |
| NC(=O)/C(=C\c1ccc(Cl)cc1Cl)S(=O)(=O)Cc1ccccc1Cl [Example 156] | 158 to 164 °C |
| CCOc1ccc(/C=C(\C#N)S(=O)(=O)Nc2ccccc2Oc2ccccc2)cc1OC [Example 211] | 142 to 144 °C |
| N#C/C(=C\c1ccccc1OCc1ccccc1)S(=O)(=O)Cc1ccc(Cl)cc1 [Example 70] | 129 to 137 °C |
| N#C/C(=C\c1ccc(Cl)cc1)S(=O)(=O)Cc1ccc(Cl)cc1Cl [Example 100] | 119 to 125 °C |
| N#C/C(=C\c1ccc(Br)cc1)S(=O)(=O)Nc1ccc(Br)cc1 [Example 217] | 174 to 176 °C |

----------
| MOLECULE | melting point |
| --- | --- |
| N#C/C(=C\c1c[nH]c2ccccc12)S(=O)(=O)Nc1ccccc1Oc1ccccc1 | 210 to 212 °C |
| N#C/C(=C\c1c[nH]c2ccccc12)S(=O)(=O)Nc1ccc(F)cc1 | 202 to 204 °C |
| N#C/C(=C\c1ccoc1)S(=O)(=O)Cc1cccc(Br)c1 | 128 to 132 °C |
| CCOc1ccc(/C=C(\C#N)S(=O)(=O)Nc2ccc(OC)cc2)cc1OC | 111 to 113 °C |
| COc1cc(OC)c(/C=C(\C#N)S(=O)(=O)Cc2ccc(OC)c(N)c2)c(OC)c1 | 198 to 200 °C |
| N#C/C(=C\c1ccccc1OC(F)F)S(=O)(=O)Cc1ccc(Br)cc1 | 204 to 206 °C |
| Cc1cc(/C=C(\C#N)S(=O)(=O)Cc2ccc(Cl)cc2)ccc1F | 140 to 145 °C |
| COc1ccc(NS(=O)(=O)/C(C#N)=C/c2c(OC)cc(OC)cc2OC)cc1 [Example 191] | 134 to 136 °C |
| COc1ccccc1/C=C(\C#N)S(=O)(=O)Nc1ccc(Br)cc1 | 187 to 189 °C |
| COc1cccc(OC)c1/C=C(\C(N)=O)S(=O)(=O)c1ccccc1 | 168 to 172 °C |
| COc1ccc(CS(=O)(=O)/C(C#N)=C/c2c(OC)cccc2OC)cc1 | 108 to 110 °C |
| COc1ccc(CS(=O)(=O)/C(=C/c2c(OC)cc(OC)cc2OC)C(N)=O)cc1 | 168 to 171 °C |
| N#C/C(=C\c1ccc(Cl)cc1)S(=O)(=O)Nc1ccccc1Oc1ccccc1 | 136 to 138 °C |
| N#C/C(=C\c1cc(Cl)cc(Cl)c1Cl)S(=O)(=O)Nc1ccc(F)cc1 | 184 to 186 °C |
| N#C/C(=C\c1c[nH]c2ccc(Cl)cc12)S(=O)(=O)Cc1ccc(Cl)cc1Cl [Example 91] | 150 to 161 °C |
| COc1ccc(/C=C(\C#N)S(=O)(=O)Cc2ccc(Cl)cc2Cl)c(F)c1 | 140 to 155 °C |
| N#C/C(=C\c1ccc(F)cc1F)S(=O)(=O)Cc1ccc(Br)cc1 | 146 to 148 °C |
| Cc1ccc(C)c(/C=C(\C(N)=O)S(=O)(=O)Cc2ccc(F)cc2)c1 | 172 to 176 °C |
| CCOc1ccc(/C=C(\C#N)S(=O)(=O)Cc2ccc(Cl)cc2Cl)cc1OC | 126 to 131 °C |
| COc1cc(OC)c(/C=C(\C(N)=O)S(=O)(=O)Cc2ccc(Cl)cc2)c(OC)c1 | 176 to 178 °C |
| N#C/C(=C\c1c[nH]c2ccccc12)S(=O)(=O)Cc1ccc(Cl)cc1 | 200 to 205 °C |
| NC(=O)/C(=C\c1ccc(Br)cc1)S(=O)(=O)Cc1ccc(F)cc1 | 199 to 200 °C |
| N#C/C(=C\c1ccc(O)c([N+](=O)[O-])c1)S(=O)(=O)Cc1ccc(Cl)cc1 | 195 to 205 °C |
| COc1ccc(NS(=O)(=O)/C(C#N)=C/c2ccccc2OC)cc1 | 133 to 135 °C |

----------
Measured melting point, listed per entry.
VALUE_KIND: melting point

| LINE_NOTATION | VALUE_KIND | VALUE_OBSERVED |
| --- | --- | --- |
| N#C/C(=C\c1c[nH]c2ccc(Cl)cc12)S(=O)(=O)Cc1ccc(F)cc1 | melting point | 250 to 265 °C |
| NC(=O)/C(=C\c1ccc(Cl)cc1Cl)S(=O)(=O)Cc1ccc(Cl)cc1 | melting point | 206 to 210 °C |
| COc1cc(/C=C(\C#N)S(=O)(=O)Cc2ccccc2)cc(OC)c1OC | melting point | 142 to 146 °C |
| NC(=O)/C(=C\c1ccc(F)cc1Cl)S(=O)(=O)Cc1ccc(Cl)cc1 | melting point | 194 to 199 °C |
| COc1ccc(NS(=O)(=O)/C(C#N)=C/c2sccc2C)cc1 | melting point | 154 to 156 °C |
| CC(=O)Oc1ccc(/C=C(\C#N)S(=O)(=O)Cc2ccc(Cl)cc2)cc1 | melting point | 192 to 202 °C |
| COc1ccc(/C=C(\C#N)S(=O)(=O)Nc2ccc(Cl)cc2)cc1 | melting point | 94 to 96 °C |
| COc1ccccc1/C=C(\C#N)S(=O)(=O)Nc1ccc(C)cc1C | melting point | 136 to 139 °C |
| COc1cc(/C=C(\C#N)S(=O)(=O)Cc2ccc(Cl)cc2)cc(OC)c1 | melting point | 155 to 165 °C |

----------
melting point overview
VALUE_KIND: melting point

| LINE_NOTATION | VALUE_KIND | VALUE_OBSERVED |
| --- | --- | --- |
| NC(=O)/C(=C\c1ccc([N+](=O)[O-])cc1)S(=O)(=O)Cc1ccc(Cl)cc1 | melting point | 190 to 192 °C |
| N#C/C(=C\c1c(F)c(F)c(F)c(F)c1F)S(=O)(=O)Nc1ccc(Br)cc1 | melting point | 174 to 176 °C |
| CCOc1cc(/C=C(\C#N)S(=O)(=O)Nc2ccc(C)cc2C)ccc1O | melting point | 146 to 148 °C |
| Cc1ccoc1/C=C(\C#N)S(=O)(=O)Cc1cccc(Br)c1 | melting point | 122 to 126 °C |
| N#C/C(=C\c1ccc([N+](=O)[O-])cc1)S(=O)(=O)Cc1ccc(Br)cc1 | melting point | 138 to 142 °C |
| Cc1ccc(C)c(/C=C(\C(N)=O)S(=O)(=O)Cc2ccc(Cl)cc2)c1 | melting point | 79 to 82 °C |
| N#C/C(=C\c1ccc(Br)cc1)S(=O)(=O)Nc1ccccc1Oc1ccccc1 | melting point | 129 to 134 °C |
| COc1ccc(CS(=O)(=O)/C(C#N)=C/c2ccc3[nH]c(=O)oc3c2)cc1 | melting point | 208 to 210 °C |
